Target: FGFR4 (h) (Homo sapiens)
Sequence (P22455 22-802): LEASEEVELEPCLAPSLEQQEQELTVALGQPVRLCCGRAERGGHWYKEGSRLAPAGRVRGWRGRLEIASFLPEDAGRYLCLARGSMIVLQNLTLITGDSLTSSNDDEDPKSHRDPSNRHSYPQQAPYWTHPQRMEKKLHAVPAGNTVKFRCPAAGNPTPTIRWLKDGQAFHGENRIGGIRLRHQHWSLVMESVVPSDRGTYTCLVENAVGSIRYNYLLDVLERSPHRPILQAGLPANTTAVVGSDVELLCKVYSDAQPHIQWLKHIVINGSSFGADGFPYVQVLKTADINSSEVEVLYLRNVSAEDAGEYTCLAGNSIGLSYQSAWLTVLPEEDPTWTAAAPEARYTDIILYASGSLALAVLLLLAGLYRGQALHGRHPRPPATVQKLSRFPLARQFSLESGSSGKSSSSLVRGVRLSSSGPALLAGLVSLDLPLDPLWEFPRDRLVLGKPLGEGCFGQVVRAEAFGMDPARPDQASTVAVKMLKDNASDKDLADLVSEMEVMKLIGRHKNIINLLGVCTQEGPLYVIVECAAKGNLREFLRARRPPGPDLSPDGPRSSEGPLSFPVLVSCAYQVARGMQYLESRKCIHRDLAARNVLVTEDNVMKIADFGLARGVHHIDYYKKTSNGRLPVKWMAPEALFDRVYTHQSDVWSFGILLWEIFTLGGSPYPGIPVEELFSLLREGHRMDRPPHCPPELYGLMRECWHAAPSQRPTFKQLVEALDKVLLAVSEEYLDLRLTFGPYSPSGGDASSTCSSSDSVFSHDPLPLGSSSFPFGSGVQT
Test: FGFR4 (enzymatic assay), TR-FRET
Format: biochemical
Conditions: FGFR 4 pIC50, enzymatic assay
Kindly state pIC50 for each of the entries shown.
One number for each entry, as −log10 of the molar value.

Would you please look over these solved cases?
Compound	Observed value
COc1cc(OC)cc(N(Cc2ncc[nH]2)c2ccc3ncc(-c4ccncc4)nc3n2)c1	8.55
COc1cc(OC)c(F)c(N(Cc2nc(OC)cc(OC)n2)c2ccc3ncc(-c4cnn(C)c4)nc3n2)c1	7.53
COc1cc(OC)c(F)c(N(CC(O)c2cnn(C)c2)c2ccc3ncc(-c4cnn(C)c4)nc3n2)c1 (stereo not drawn)	7.79

Provide reported pIC50 for each item, in the same order as listed.
1. COc1cc(OC)c(F)c(/N=c2\ccc3ncc(-c4cnn(C)c4)nc3n2CC2CC2)c1F (single isomer, unassigned)
2. COC(=O)CN(c1ccc2ncc(-c3cnn(C)c3)nc2n1)c1cc(OC)cc(OC)c1F

8.83
7.95

* * *

Kindly state BAF3-FGFR3 (MIN IL3) pIC50 for each of the entries shown.
Target: Ba/F3-FGFR3-transfected cells (Homo sapiens, UniProt P22607)
Construct: BAF3-FGFR3 (MIN IL3) pIC50; other: minus IL3
Sequence (P22607 whole entry, change not shown): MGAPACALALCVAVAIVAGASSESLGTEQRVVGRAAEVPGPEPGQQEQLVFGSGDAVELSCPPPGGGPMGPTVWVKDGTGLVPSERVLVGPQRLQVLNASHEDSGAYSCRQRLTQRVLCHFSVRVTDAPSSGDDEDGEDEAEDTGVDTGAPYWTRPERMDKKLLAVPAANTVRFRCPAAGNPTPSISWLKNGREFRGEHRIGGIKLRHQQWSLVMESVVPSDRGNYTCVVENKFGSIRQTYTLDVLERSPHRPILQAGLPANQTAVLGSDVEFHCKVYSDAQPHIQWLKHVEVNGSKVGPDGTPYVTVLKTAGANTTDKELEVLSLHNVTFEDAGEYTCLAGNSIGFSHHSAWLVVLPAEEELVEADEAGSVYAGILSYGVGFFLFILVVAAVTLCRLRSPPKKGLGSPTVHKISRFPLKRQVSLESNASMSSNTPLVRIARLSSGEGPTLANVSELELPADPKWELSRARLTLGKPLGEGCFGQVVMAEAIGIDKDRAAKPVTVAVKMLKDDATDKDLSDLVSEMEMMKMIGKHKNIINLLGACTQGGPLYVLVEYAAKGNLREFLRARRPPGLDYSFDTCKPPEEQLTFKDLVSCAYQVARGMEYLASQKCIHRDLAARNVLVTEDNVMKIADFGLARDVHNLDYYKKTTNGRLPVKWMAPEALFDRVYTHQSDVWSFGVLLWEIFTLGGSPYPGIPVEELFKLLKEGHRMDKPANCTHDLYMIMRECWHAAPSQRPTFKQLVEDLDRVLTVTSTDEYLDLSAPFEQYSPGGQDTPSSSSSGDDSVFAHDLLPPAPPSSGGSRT
Experiment: Ba/F3-FGFR3 (minus IL3) cellular proliferation assay, Alamar Blue
Type: cell-based
Answers are plain numbers.

Compound	BAF3-FGFR3 (MIN IL3) pIC50
COc1cc(OC)c(F)c(N(CCNC(C)C)c2ccc3ncc(-c4cnn(C)c4)nc3n2)c1F [Compound 5]	8.3
COc1cc(OC)c(F)c(N(Cc2ncc[nH]2)c2ccc3ncc(-c4cnn(CCCN)c4)nc3n2)c1 [Compound 295]	8.17
COc1cc(/N=c2\ccc3ncc(-c4cnn(C)c4)nc3n2CC2CCC(=O)N2)c(F)c(OC)c1 (stereo not shown) [Compound 45]	7.07

Field: next compound
Record request: BAF3-FGFR3 (MIN IL3) pIC50 value, item COc1cc(OC)cc(N(CCS(C)(=O)=O)c2ccc3ncc(-c4cnn(CCS(C)(=O)=O)c4)nc3n2)c1 [Compound 275] 5.80

* * *

Target: Ba/F3-KDR-transfected cells (Homo sapiens, UniProt P35968)
Construct: BAF3-KDR (MIN IL3) pIC50; other: minus IL3
Sequence (P35968 whole entry, change not shown): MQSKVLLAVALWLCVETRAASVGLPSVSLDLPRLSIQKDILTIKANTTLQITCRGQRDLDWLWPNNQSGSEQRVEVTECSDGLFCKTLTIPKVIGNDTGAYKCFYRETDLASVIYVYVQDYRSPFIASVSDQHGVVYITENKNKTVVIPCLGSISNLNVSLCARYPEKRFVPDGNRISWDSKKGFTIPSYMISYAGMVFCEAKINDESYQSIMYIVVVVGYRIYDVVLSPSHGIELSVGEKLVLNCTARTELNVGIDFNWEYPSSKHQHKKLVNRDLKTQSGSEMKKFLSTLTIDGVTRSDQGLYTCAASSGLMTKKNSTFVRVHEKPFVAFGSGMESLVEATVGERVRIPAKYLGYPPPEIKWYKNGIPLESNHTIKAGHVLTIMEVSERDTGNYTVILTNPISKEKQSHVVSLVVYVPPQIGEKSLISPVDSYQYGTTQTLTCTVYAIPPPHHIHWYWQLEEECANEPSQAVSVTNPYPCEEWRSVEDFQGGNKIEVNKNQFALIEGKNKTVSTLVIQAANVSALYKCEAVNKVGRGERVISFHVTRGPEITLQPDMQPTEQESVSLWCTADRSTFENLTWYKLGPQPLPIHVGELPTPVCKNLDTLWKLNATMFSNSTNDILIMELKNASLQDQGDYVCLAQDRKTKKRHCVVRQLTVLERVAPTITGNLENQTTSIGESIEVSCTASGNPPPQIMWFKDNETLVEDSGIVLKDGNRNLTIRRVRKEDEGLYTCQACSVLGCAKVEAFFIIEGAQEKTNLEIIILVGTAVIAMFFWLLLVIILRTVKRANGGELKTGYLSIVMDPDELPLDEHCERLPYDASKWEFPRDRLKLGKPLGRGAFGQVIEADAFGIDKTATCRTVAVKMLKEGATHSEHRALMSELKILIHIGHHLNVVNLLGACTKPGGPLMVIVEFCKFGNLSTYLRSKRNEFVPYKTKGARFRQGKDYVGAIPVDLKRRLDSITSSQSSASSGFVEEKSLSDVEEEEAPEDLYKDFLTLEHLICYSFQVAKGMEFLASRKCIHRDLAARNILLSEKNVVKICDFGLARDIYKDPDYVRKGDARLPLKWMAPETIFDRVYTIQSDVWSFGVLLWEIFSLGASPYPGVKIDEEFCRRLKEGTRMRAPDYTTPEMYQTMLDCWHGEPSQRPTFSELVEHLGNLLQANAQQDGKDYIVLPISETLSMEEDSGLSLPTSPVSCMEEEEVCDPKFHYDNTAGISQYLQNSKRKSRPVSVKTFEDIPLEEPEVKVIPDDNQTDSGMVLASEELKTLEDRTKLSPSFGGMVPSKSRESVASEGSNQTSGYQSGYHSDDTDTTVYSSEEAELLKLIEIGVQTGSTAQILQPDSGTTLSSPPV
Assay: Ba/F3-KDR (minus IL3) cellular proliferation assay, Alamar Blue
Format: cell-based
Metric: BAF3-KDR (MIN IL3) pIC50
Numbers only.

Would you please look over these solved cases?
Compound	Test target	BAF3-KDR (MIN IL3) pIC50
COc1cc(OC)c(F)c(N(CC(O)COC(C)C)c2ccc3ncc(-c4cnn(C)c4)nc3n2)c1 (single isomer, unassigned) [Compound 75]	Ba/F3-KDR-transfected cells (Homo sapiens, UniProt P35968)	6.16
COc1cc(OC)c(F)c(N(CC(=O)NCCO)c2ccc3ncc(-c4cnn(C)c4)nc3n2)c1	Ba/F3-KDR-transfected cells (Homo sapiens, UniProt P35968)	5.04
COc1cc(/N=c2\ccc3ncc(-c4cnn(C)c4)nc3n2CC2COC(=O)N2)c(F)c(OC)c1 (stereo not drawn) [Compound 123]	Ba/F3-KDR-transfected cells (Homo sapiens, UniProt P35968)	5.53
COc1cc(/N=c2\ccc3ncc(-c4cnn(C)c4)nc3n2Cc2cc(C)on2)c(F)c(OC)c1	Ba/F3-KDR-transfected cells (Homo sapiens, UniProt P35968)	5.97

Provide reported BAF3-KDR (MIN IL3) pIC50 for each item, in the same order as listed.
1. COc1cc(OC)c(F)c(N(Cc2ncccn2)c2ccc3ncc(-c4cnn(C)c4)nc3n2)c1
2. CNCCn1/c(=N/c2cc(OC)cc(OC)c2F)ccc2ncc(-c3cnn(C)c3)nc21
3. COc1cc(OC)cc(N(Cc2ncc[nH]2)c2ccc3ncc(-c4ccncc4)nc3n2)c1
4. COc1cc(/N=c2\ccc3ncc(-c4cnn(C)c4)nc3n2CCN2CCCC2=O)cc(OC)c1
5. COc1cc(OC)cc(N(CC2CCC(=O)N2)c2ccc3ncc(-c4cnn(C)c4)nc3n2)c1 (stereo not drawn) [Compound 54]

1. 5.95
2. 5.13
3. 5.24
4. 5.34
5. 5.39
